Would you mind telling me the reported NOAEL of each entry?
System: Oryctolagus sp.
APPLIED CONDITIONS: developmental; development
Answers are plain numbers, in mg/kg-day.

Would you please look over these solved cases?
{"columns": ["MOLECULE", "TEST READOUT", "REPORTED"],
 "data": [
  ["Oc1cccc2cccnc12 [8-Hydroxyquinoline]", "NOAEL", 5],
  ["CS(=O)(=O)c1cc(C(F)(F)F)ccc1C(=O)c1cnoc1C1CC1", "NOAEL", 5],
  ["CC(O)(Cn1cncn1)c1ccc(Oc2ccc(Cl)cc2)cc1C(F)(F)F (stereo not given)", "NOAEL", 15],
  ["O=C(O)C(O)Cn1cncn1 (stereo not given)", "NOAEL", 30]
]}

query: Write down NOAEL measured for item `Cn1cnc2c1c(=O)[nH]c(=O)n2C`
result: 21

Reference for the values: EPA's ToxValDB 9.5
